Target: UniProt Q8ILY1
Sequence (Q8ILY1 entry or part of it): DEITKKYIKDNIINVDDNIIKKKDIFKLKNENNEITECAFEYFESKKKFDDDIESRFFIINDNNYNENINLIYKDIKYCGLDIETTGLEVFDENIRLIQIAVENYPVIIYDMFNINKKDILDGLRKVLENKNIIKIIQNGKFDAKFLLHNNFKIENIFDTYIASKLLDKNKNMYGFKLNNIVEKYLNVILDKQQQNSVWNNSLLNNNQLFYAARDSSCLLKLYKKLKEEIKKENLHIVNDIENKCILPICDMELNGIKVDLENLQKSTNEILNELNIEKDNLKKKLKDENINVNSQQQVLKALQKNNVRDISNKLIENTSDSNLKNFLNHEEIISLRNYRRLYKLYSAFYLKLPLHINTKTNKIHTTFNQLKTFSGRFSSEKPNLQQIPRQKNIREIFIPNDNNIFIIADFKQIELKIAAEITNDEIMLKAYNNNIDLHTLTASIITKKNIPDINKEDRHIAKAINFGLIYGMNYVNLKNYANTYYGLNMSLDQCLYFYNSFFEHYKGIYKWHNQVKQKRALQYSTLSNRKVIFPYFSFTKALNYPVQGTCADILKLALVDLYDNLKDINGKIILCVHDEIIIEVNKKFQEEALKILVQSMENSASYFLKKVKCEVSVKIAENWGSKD
Test: Fluorescence-based high-throughput DNA polymerase assay (molecular beacon), primary screen and dose-response
Assay type: biochemical
Settings: DRC-1; 10'; concentration 20
REPORTED PROPERTY: % inhibition Apo pol 10' (%)
Quick note: give the figure in %, leave out the unit.

Which % inhibition Apo pol 10' is reported with UniProt Q8ILY1 for this entry: COc1ccc(NC(=O)Cn2ccc3c(=O)[nH]ccc32)cc1 [Molecule 13, COc1ccc(cc1)NC(=O)Cn1ccc2c1cc[nH]c2=O] ?
81.849

How about this compound: COc1ccc2c(c1)C(c1ccccc1OC)CC(=O)O2 (stereo not drawn) [Molecule 38, COc1ccc2c(c1)C(CC(=O)O2)c1ccccc1OC]
76.7316

How about this compound: COc1ccc(-c2n[nH]cc2Oc2ccc(Cl)cc2)c(O)c1 [KU0029837]
64.1383

How about this compound: CC(=O)c1cc2c(N)c(/C(N)=N/C#N)sc2nc1C [KU0015866]
44.0355

How about this compound: O=C(O)c1c(F)c(F)c(-c2c(F)c(F)c(C(=O)O)c(F)c2F)c(F)c1F [KU0008974]
42.0339

How about this compound: O=C1C(=Cc2ccccc2O)Oc2ccc(O)cc21 [KU0196475]
10.6699

How about this compound: CCCCCCCCCCCC1SCC(C(=O)O)N1C(C)=O (stereo not drawn) [Molecule 72]
24.1814

How about this compound: COc1cc(/C=C2\S/C(=N/C(C)=O)NC2=O)cc(Br)c1OCC(=O)O [KU0057841]
35.9073

How about this compound: Cc1ncc(CSc2nc(C(C)(C)C)cs2)c(CO)c1O [KU0264007]
37.8368
